# Assay comment: In vivo plasma PK after oral dosing in CM-2 formulation
# Condition label: female, CD-1, mouse, plasma, po, 25 mg/kg
Reported log10 half-life values for the following compounds.
Metric name: log10 half-life (log10 of the value in h)

# Compound, log10 half-life
data = [
    ("CC[C@H]1Oc2nc([N+](=O)[O-])cn2C[C@@H]1NCc1ccc(-c2ccc(OC(F)(F)F)cc2)cc1", 0.69),
    ("O=[N+]([O-])c1cn2c(n1)OC[C@@H](NCc1ccc(OC(F)(F)F)c(F)c1)C2", 0.30),
    ("CC[C@@H]1Oc2nc([N+](=O)[O-])cn2C[C@@H]1NCc1ccc(OC(F)(F)F)cc1", 0.58),
    ("O=[N+]([O-])c1cn2c(n1)OC1(CC1)C(OCc1ccc(OC(F)(F)F)cc1)C2 (stereo not drawn)", 0.61),
    ("CC[C@@H]1Oc2nc([N+](=O)[O-])cn2C[C@@H]1NCc1ccc(OC(F)(F)F)c(F)c1", 0.63),
    ("CC[C@@H]1Oc2nc([N+](=O)[O-])cn2C[C@@H]1OCc1ccc(OC(F)(F)F)cc1", 0.62),
    ("O=[N+]([O-])c1cn2c(n1)OC[C@@H](NCc1ccc(OC(F)(F)F)c(O)c1)C2", -0.70),
    ("CC[C@H]1Oc2nc([N+](=O)[O-])cn2C[C@@H]1NCc1ccc(OC(F)(F)F)cc1", 0.30),
    ("O=[N+]([O-])c1cn2c(n1)OC[C@@H](NCc1ccc(OC(F)(F)F)c(Cl)c1)C2", 0.46),
]

* * *

# Assay comment: in vitro
# Condition label: human, Caco-2
Response field class: string, computed from recorded Papp A→B by ranges category 1: < 20 ×10⁻⁶ cm/s; category 2: ≥ 20 ×10⁻⁶ cm/s and < 30 ×10⁻⁶ cm/s; category 3: ≥ 30 ×10⁻⁶ cm/s

# Molecule, Group label
data = [
    ("O=[N+]([O-])c1cn2c(n1)OC[C@@H](NCc1ccc(OC(F)(F)F)cc1)C2 [Amino-824]", "category 3"),
    ("O=C(CO[C@@H]1COc2nc([N+](=O)[O-])cn2C1)N1CCN(c2ccc(OC(F)(F)F)cc2)CC1 [NI-622]", "category 1"),
    ("O=[N+]([O-])c1cn2c(n1)OC[C@@H](NCc1ccc(OC(F)(F)F)c(F)c1)C2 [NI-136]", "category 1"),
    ("O=[N+]([O-])c1cn2c(n1)OC[C@@H](NCCc1ccc(OC(F)(F)F)cc1)C2 [AminoEthyl-824]", "category 1"),
    ("O=[N+]([O-])c1cn2c(n1)OC[C@@H](NCc1ccc(OC(F)(F)F)c(Cl)c1)C2 [NI-135]", "category 2"),
    ("O=C(CO[C@@H]1COc2nc([N+](=O)[O-])cn2C1)N1CCN(c2ccc(C(F)(F)F)cn2)CC1 [NI-644]", "category 1"),
    ("CC[C@H]1Oc2nc([N+](=O)[O-])cn2C[C@@H]1NCc1ccc(OC(F)(F)F)cc1 [NI-182]", "category 1"),
    ("O=[N+]([O-])c1cn2c(n1)OC[C@@H](OCc1ccc(OC(F)(F)F)cc1)C2 [PA-824, reference compound]", "category 2"),
    ("O=[N+]([O-])c1cn2c(n1)OC1(CC1)C(OCc1ccc(OC(F)(F)F)cc1)C2 (stereo not drawn) [NI-302]", "category 3"),
]

* * *

# Assay comment: physchem
Reported logP values for the following molecules.

# Structure as smiles, logP
measured = [
    ("O=[N+]([O-])c1cn2c(n1)OC[C@@H](NCc1ccc(OC(F)(F)F)cc1)C2", 2.5),
    ("CC[C@H]1Oc2nc([N+](=O)[O-])cn2C[C@@H]1NCc1ccc(-c2ccc(OC(F)(F)F)cc2)cc1", 6),
    ("CC[C@@H]1Oc2nc([N+](=O)[O-])cn2C[C@@H]1NCc1ccc(OC(F)(F)F)cc1", 3.15),
    ("O=[N+]([O-])c1cn2c(n1)OC[C@@H](NCc1ccc(OC(F)(F)F)c(O)c1)C2", 2.4),
]

* * *

# Condition label: female, CD-1, mouse, in vivo, po, 25 mg/kg
Metric name: Plasma free fCmax

# Molecule, Recorded value
records = [
    ("CC[C@H]1Oc2nc([N+](=O)[O-])cn2C[C@@H]1NCc1ccc(-c2ccc(OC(F)(F)F)cc2)cc1", "0.1 µg/mL"),
    ("O=[N+]([O-])c1cn2c(n1)OC[C@@H](NCc1ccc(OC(F)(F)F)c(Cl)c1)C2", "0.1 µg/mL"),
    ("O=[N+]([O-])c1cn2c(n1)OC[C@@H](NCc1ccc(OC(F)(F)F)c(F)c1)C2", "0.3 µg/mL"),
    ("O=[N+]([O-])c1cn2c(n1)OC[C@@H](OCc1ccc(OC(F)(F)F)cc1)C2 [PA-824, reference compound]", "0.6 µg/mL"),
    ("CC[C@H]1Oc2nc([N+](=O)[O-])cn2C[C@@H]1NCc1ccc(OC(F)(F)F)cc1", "0.3 µg/mL"),
]

* * *

Reported clearance values for the following compounds.
# Assay comment: in vivo
# Condition label: female, CD-1, mouse, iv, 10 mg/kg, i.v. CL

# Structure as smiles, clearance [mL/min/kg]
data = [
    ("O=C(CO[C@@H]1COc2nc([N+](=O)[O-])cn2C1)N1CCN(c2ccc(C(F)(F)F)cn2)CC1", 9.5),
    ("O=[N+]([O-])c1cn2c(n1)OC[C@@H](NCCc1ccc(OC(F)(F)F)cc1)C2", 44),
    ("O=[N+]([O-])c1cn2c(n1)OC[C@@H](NCc1ccc(OC(F)(F)F)cc1)C2", 20.5),
    ("O=C(CO[C@@H]1COc2nc([N+](=O)[O-])cn2C1)N1CCN(c2ccc(OC(F)(F)F)cc2)CC1", 14.7),
]

* * *

# Assay comment: in vivo
# Condition label: female, CD-1, mouse, po, 10 mg/kg

# Compound, AUC / ng·h/mL
measured = [
    ("O=[N+]([O-])c1cn2c(n1)OC[C@@H](NCCc1ccc(OC(F)(F)F)cc1)C2 [AminoEthyl-824]", 2900),
    ("O=[N+]([O-])c1cn2c(n1)OC[C@@H](NCc1ccc(OC(F)(F)F)cc1)C2 [Amino-824]", 6000),
]

* * *

# Assay comment: in vivo
# Condition label: female, CD-1, mouse, po, 25 mg/kg, Lung to Plasma ratio AUC24
Cut-off 3 on Kp: below means Fulfilled, at or above means Not fulfilled.

# Compound, Group label
records = [
    ("CC[C@@H]1Oc2nc([N+](=O)[O-])cn2C[C@@H]1NCc1ccc(OC(F)(F)F)cc1", "Fulfilled"),
    ("CC[C@@H]1Oc2nc([N+](=O)[O-])cn2C[C@@H]1NCc1ccc(OC(F)(F)F)c(F)c1", "Fulfilled"),
    ("CC[C@@H]1Oc2nc([N+](=O)[O-])cn2C[C@@H]1OCc1ccc(OC(F)(F)F)cc1", "Fulfilled"),
    ("CC[C@H]1Oc2nc([N+](=O)[O-])cn2C[C@@H]1NCc1ccc(-c2ccc(OC(F)(F)F)cc2)cc1", "Fulfilled"),
    ("O=[N+]([O-])c1cn2c(n1)OC1(CC1)C(OCc1ccc(OC(F)(F)F)cc1)C2 (stereo not drawn)", "Fulfilled"),
    ("O=[N+]([O-])c1cn2c(n1)OC[C@@H](NCc1ccc(OC(F)(F)F)c(Cl)c1)C2", "Not fulfilled"),
    ("CC[C@H]1Oc2nc([N+](=O)[O-])cn2C[C@@H]1NCc1ccc(OC(F)(F)F)cc1", "Not fulfilled"),
    ("O=[N+]([O-])c1cn2c(n1)OC[C@@H](NCc1ccc(OC(F)(F)F)c(F)c1)C2", "Not fulfilled"),
    ("O=[N+]([O-])c1cn2c(n1)OC[C@@H](OCc1ccc(OC(F)(F)F)cc1)C2 [PA-824, reference compound]", "Fulfilled"),
]

* * *

Reported PAMPA %FA values for the following compounds.
Metric name: PAMPA %FA (%)

# Structure as smiles, Recorded value
records = [
    ("CC[C@H]1Oc2nc([N+](=O)[O-])cn2C[C@@H]1NCc1ccc(-c2ccc(OC(F)(F)F)cc2)cc1", 97),
    ("O=[N+]([O-])c1cn2c(n1)OC[C@@H](NCc1ccc(OC(F)(F)F)c(O)c1)C2", 43),
    ("CC[C@@H]1Oc2nc([N+](=O)[O-])cn2C[C@@H]1NCc1ccc(OC(F)(F)F)c(F)c1", 99),
    ("O=C(CO[C@@H]1COc2nc([N+](=O)[O-])cn2C1)N1CCN(c2ccc(OC(F)(F)F)cc2)CC1", 31),
    ("CC[C@H]1Oc2nc([N+](=O)[O-])cn2C[C@@H]1NCc1ccc(OC(F)(F)F)cc1", 99),
    ("O=[N+]([O-])c1cn2c(n1)OC[C@@H](NCCc1ccc(OC(F)(F)F)cc1)C2", 85),
    ("CC[C@@H]1Oc2nc([N+](=O)[O-])cn2C[C@@H]1OCc1ccc(OC(F)(F)F)cc1", 99),
    ("O=[N+]([O-])c1cn2c(n1)OC[C@@H](NCc1ccc(OC(F)(F)F)c(Cl)c1)C2", 90),
]

src = paper PMC4139342
